- Target System: MUC16 antigen (CA125) (UniProt Q8WXI7 1-14451)
- Assay Summary: SPR; 25 C, pH 7.2; kon 2.55e4 M-1 s-1, koff 1.01e-3 s-1; SPR, pH 7.2, 25 C (also 37 and 42 C); 1X PBS with 1 mM MgCl2 given as flow buffer for aptamer immobilization; surface blocked with 0.1% BSA
- Condition Summary: protein: commercial
Experimental Readout: Kd (nM)
One number for each entry, in nM.

Quote Kd reported for CTCACTATAGGGAGACAAGAATAAACGCTCAA (ssDNA, 3'-C6 amine) [anti-MUC16 aptamer] please.
39
